Test system: HCT-116 colon
Test: NCI tumour cell line growth inhibition, 48 h; in the data active = GI50 below about 0.43 µM; inactive = the rest
Possible outcomes: active, inactive

MOLECULE: N#CC1=C(N)N=C(N2CCOCC2)C(C#N)C12Nc1ccccc1S2 (configuration not stated)
LABEL_VALUE: inactive
//
MOLECULE: COc1ccc2nc3cc([N+](=O)[O-])ccc3c(NCCO)c2c1
LABEL_VALUE: inactive
//
MOLECULE: Nc1c(C(=O)Nc2cccc(Cl)c2)sc2nc3c(cc12)C(O)CCC3 (configuration not stated)
LABEL_VALUE: inactive
//
MOLECULE: COC(=O)CN1Cc2cc(C)cc(c2O)CN(CC(=O)OC)Cc2cc(C)cc(c2O)CN(CC(=O)OC)Cc2cc(C)cc(c2O)CN(CC(=O)OC)Cc2cc(C)cc(c2O)C1
LABEL_VALUE: inactive
//
MOLECULE: O=C1/C(=C/c2ccc(Cl)cc2)CN(Cc2cn(CCCNc3ccnc4cc(Cl)ccc34)nn2)C/C1=C\c1ccc(Cl)cc1
LABEL_VALUE: active
//
MOLECULE: CCN1CCN(Cc2ccc(Nc3ncc(F)c(-c4cc(F)c5nc(C)n(C(C)C)c5c4)n3)nc2)CC1
LABEL_VALUE: active
//
MOLECULE: CC(=O)Oc1ccc(C2OC(c3ccc4ccccc4c3OC(C)=O)=NN2C(C)=O)c(OC(C)=O)c1 (configuration not stated)
LABEL_VALUE: active

----------
System: OVCAR-5 ovarian
Experiment: NCI tumour cell line growth inhibition, 48 h
RECORDED_ENDPOINT: GI50

COMPOUND: CCCCCOC(=O)Nc1nc(=O)n(C2OC(C)C(O)C2O)cc1F (stereo not drawn)
STUDY_SYSTEM: OVCAR-5 ovarian
RECORDED_ENDPOINT: GI50
MEASURED_RESULT: > 10000 µM
--
COMPOUND: COC(=O)C1C(C(=O)O)C2(c3ccccc3)C(=O)C1(c1ccccc1)C(c1ccc(OC)cc1)=C2c1ccc(OC)cc1 (stereo not drawn)
STUDY_SYSTEM: OVCAR-5 ovarian
RECORDED_ENDPOINT: GI50
MEASURED_RESULT: 20.8 µM
--
COMPOUND: CSC1=CC(=O)c2ccccc2C1=O
STUDY_SYSTEM: OVCAR-5 ovarian
RECORDED_ENDPOINT: GI50
MEASURED_RESULT: 17.4 µM
--
COMPOUND: c1cc[n+](Cc2c3ccccc3cc3c2ccc2ccccc23)cc1
STUDY_SYSTEM: OVCAR-5 ovarian
RECORDED_ENDPOINT: GI50
MEASURED_RESULT: 11.1 µM
--
COMPOUND: CC(C)[C@@]12C[C@@H](OC(=O)COC(=O)c3ccccc3)[C@@](C)(O1)[C@@H]1CC[C@@H](C)[C@H]1[C@@H]2OC(=O)/C=C/c1ccccc1
STUDY_SYSTEM: OVCAR-5 ovarian
RECORDED_ENDPOINT: GI50
MEASURED_RESULT: > 100 µM
--
COMPOUND: Nc1nc2ccc(CNc3ccc(C(=O)NC(CC(=O)O)C(=O)O)cc3)cc2c(=O)[nH]1 (stereo not drawn)
STUDY_SYSTEM: OVCAR-5 ovarian
RECORDED_ENDPOINT: GI50
MEASURED_RESULT: > 47.2 µM
--
COMPOUND: Cn1cc(-c2csc(-c3ccccc3)n2)c2cccnc21
STUDY_SYSTEM: OVCAR-5 ovarian
RECORDED_ENDPOINT: GI50
MEASURED_RESULT: 14 µM
--
COMPOUND: COc1ccccc1CNCCCN1C(=O)c2ccc3c4c(ccc(c24)C1=O)C(=O)N(CCCNCCCCNCCCN)C3=O
STUDY_SYSTEM: OVCAR-5 ovarian
RECORDED_ENDPOINT: GI50
MEASURED_RESULT: 2.03 µM
--
COMPOUND: Cc1[nH]c(C(=O)Nc2cccc(OC3CCNCC3)c2)c(Cl)c1Cl
STUDY_SYSTEM: OVCAR-5 ovarian
RECORDED_ENDPOINT: GI50
MEASURED_RESULT: 1.63 µM
--
COMPOUND: COc1ccc(-c2nc3sccn3c2-c2ccnc(NCCNS(=O)(=O)c3ccc(C(F)(F)F)cc3)n2)cc1
STUDY_SYSTEM: OVCAR-5 ovarian
RECORDED_ENDPOINT: GI50
MEASURED_RESULT: 9.38 µM
--
COMPOUND: O=C1/C(=C/c2ccc(Cl)cc2)CN(Cc2cn(CCCNc3ccnc4cc(Cl)ccc34)nn2)C/C1=C\c1ccc(Cl)cc1
STUDY_SYSTEM: OVCAR-5 ovarian
RECORDED_ENDPOINT: GI50
MEASURED_RESULT: 1.26 µM
--
COMPOUND: CCOC(=O)c1c(-c2ccccc2)n2c(=O)cc(C)c3c(O)c(O)cc1c32
STUDY_SYSTEM: OVCAR-5 ovarian
RECORDED_ENDPOINT: GI50
MEASURED_RESULT: 22.5 µM
--
COMPOUND: CCN1CCN(Cc2ccc(NC(=O)Nc3nc(-c4cc(OC)c(OC)c(OC)c4)cs3)cc2C(F)(F)F)CC1
STUDY_SYSTEM: OVCAR-5 ovarian
RECORDED_ENDPOINT: GI50
MEASURED_RESULT: 1.62 µM
